Reported values of MDCK-MDR1: % Recov B-A for individual entries
# System: MDR1-MDCK cell monolayers
# METHOD_SUMMARY: MDCK-MDR1 permeability assay (BBB penetration potential)
# Type: in vitro ADME
# PROTOCOL_CONDITIONS: dog, MDCK-MDR1, 120 min, 5 μM, pH 7.4
Please format your answer as a value with the unit trailing.

Examples with their reported MDCK-MDR1: % Recov B-A follow.
1. Oc1cc(-c2nnco2)ccc1-c1ccc(O[C@@H]2C[C@H]3CCC[C@H](N3)[C@@H]2F)nn1 (single isomer, unassigned) :: 106%
2. Cc1cc(-c2ccc(-c3ccc(O[C@@H]4C[C@H]5CCC[C@H](N5)[C@@H]4F)nn3)c(O)c2)cs1 (single isomer, unassigned) :: 70%
3. Oc1cc(-c2cn[nH]c2)ccc1-c1ccc(O[C@@H]2C[C@H]3CCC[C@H](N3)[C@H]2F)nn1 (single isomer, unassigned) :: 74%
4. Cn1cc(-c2cc(O)c(-c3ccc(O[C@@H]4C[C@H]5CCC[C@H](N5)[C@@H]4F)nn3)cc2F)cn1 (single isomer, unassigned) :: 72%
5. Cc1cc(-c2ccc(-c3ccc(O[C@H]4C[C@@H]5CCC[C@@H](N5)[C@H]4F)nn3)c(O)c2)cnn1 (single isomer, unassigned) :: 97%
6. Cn1cc(-c2cc(O)c(-c3ccc(O[C@H]4C[C@@H]5CCC[C@@H](N5)[C@H]4F)nn3)cc2Cl)cn1 (single isomer, unassigned) :: 71%
7. Cc1cncc(-c2ccc(-c3ccc(O[C@H]4C[C@@H]5CCC[C@@H](N5)[C@H]4F)nn3)c(O)c2)c1 (single isomer, unassigned) :: 70%
8. Oc1cc(-c2cn[nH]c2)ccc1-c1ccc(O[C@H]2C[C@@H]3CCC[C@@H](N3)[C@@H]2F)nn1 (single isomer, unassigned) :: 86%

Which measured MDCK-MDR1: % Recov B-A value corresponds to Cn1ccc(-c2ccc(-c3ccc(O[C@@H]4C[C@@]5(C)CCC[C@](C)(N5)[C@@H]4F)nn3)c(O)c2)cc1=O (single isomer, unassigned) ?
73%

Need MDCK-MDR1: % Recov B-A of Cc1cncc(-c2ccc(-c3ccc(O[C@@H]4C[C@H]5CCC[C@H](N5)[C@@H]4F)nn3)c(O)c2)n1 (single isomer, unassigned) , thanks.
90%

Which MDCK-MDR1: % Recov B-A reading was recorded for the molecule Cn1cnc(-c2ccc(-c3ccc(O[C@H]4C[C@@H]5CCC[C@@H](N5)[C@H]4F)nn3)c(O)c2)cc1=O (single isomer, unassigned) ?
91%

Can you share its MDCK-MDR1: % Recov B-A? I mean this molecule: CN(C)C(=O)c1cc2cc(O)c(-c3ccc(O[C@H]4C[C@]5(C)CCC[C@@](C)(N5)[C@H]4F)nn3)cc2o1 (single isomer, unassigned)
102%

Looking for the measured MDCK-MDR1: % Recov B-A of Cn1cc(-c2ccc(-c3ccc(O[C@@H]4C[C@H]5CCC[C@H](N5)[C@@H]4F)nn3)c(O)c2F)cn1 (single isomer, unassigned) , can you help?
80%

Could you share which MDCK-MDR1: % Recov B-A value was measured for Oc1cc2cccnc2cc1-c1ccc(O[C@@H]2C[C@H]3CCC[C@H](N3)[C@@H]2F)nn1 (single isomer, unassigned) ?
84%

Which MDCK-MDR1: % Recov B-A value belongs to Oc1cc(-c2ccnnc2)ccc1-c1ccc(O[C@@H]2C[C@H]3CCC[C@H](N3)[C@@H]2F)nn1 (single isomer, unassigned) ?
100%
